In this section, each of the compounds is paired with its reported %Inh.
- Test system: GRK2
- Construct: gene ADRBK1
- MEASUREMENT_CONDITIONS: concentration: 1 μM,replicates: in singlicate; n = 1;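 further: KINOMEscan kinase panel screen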
Kindly provide the numeric value in % only, without the unit symbol.

These solved cases illustrate the format of a correct answer.
COMPOUND	SYSTEM_TESTED	OBSERVABLE	RECORDED_VALUE
O=C(NCC1CC1)c1ccc(-c2cc(C(=O)NC3CC3)ccc2F)cc1 [GW810445]	GRK2	%Inh	19
COc1cccc(OC)c1C(=O)Nc1cccc(-c2nn3ccccc3c2-c2ccnc(Nc3cccc(F)c3)n2)c1 [GSK361065]	GRK2	%Inh	0

Which %Inh value is on record for COc1ccc(Nc2nccc(N3CCC(NC(=O)c4cccc(C#N)c4)C3)n2)cc1 (stereo not shown) [GSK1379730] ?
3

Which %Inh value is on record for COc1cc(Nc2nccc(N3CCC(NC(=O)c4cccc(C#N)c4)C3)n2)cc(OC)c1OC (stereo not shown) [GSK1379751] ?
0

Which %Inh value is on record for `Cn1ccc2ncnc(Oc3ccc(NC(=O)Nc4cnn(C(C)(C)C)c4)c(Cl)c3)c21` ?
2

Which %Inh value is on record for COc1cc2nccc(Nc3ccc(Oc4ccccc4)cc3)c2cc1OC.Cl [GI261656] ?
0

Which %Inh value is on record for `O=C(NOCC1CC1)c1cc(Br)c(F)c(F)c1Nc1ccc(I)cc1Cl` ?
0

Which %Inh value is on record for `O=C(Nc1ccc(Oc2ccc3nc(NC(=O)C4CC4)cn3n2)c(F)c1)c1cccn(-c2ccccc2)c1=O` ?
0

Which %Inh value is on record for Cl.Cl.NC[C@H](CC1CCCCC1)NC(=O)c1ccc(-c2ccnc3[nH]ccc23)s1 [GSK1581428] ?
55

Which %Inh value is on record for CS(=O)(=O)Nc1ccc(-c2ccnc3[nH]ccc23)cc1 [GSK993273] ?
0

Which %Inh value is on record for COC(=O)c1cccc(NC(=O)NC2CCN(c3ccnc(NCc4ccc(F)cc4)n3)CC2)c1 [GSK1379860] ?
0

Which %Inh value is on record for NC(=O)Nc1sc(-c2ccc(F)cc2)cc1C(N)=O [GW789449] ?
0

---

- Test system: GRK3
- Construct: gene ADRBK2
- MEASUREMENT_CONDITIONS: concentration: 1 μM,replicates: in singlicate; n = 1
OBSERVABLE: %Inh (%)
Kindly provide the numeric value in % only, without the unit symbol.

These solved cases illustrate the format of a correct answer.
MOLECULE	SYSTEM_TESTED	SCALE_UNIT	%Inh
CC(C(=O)NC1CCN(c2ccnc(Nc3ccc(F)cc3)n2)C1)c1ccc(Cl)cc1 (stereo not drawn)	GRK3	%	0
COC(=O)c1cccc(NC(=O)NC2CCN(c3ccnc(NCc4ccc(F)cc4)n3)CC2)c1	GRK3	%	38
NC(=O)c1ccc(-c2cc3ncnc(SCC(=O)O)c3s2)cc1	GRK3	%	0
Cc1ccc2c(-c3ccnc(Nc4ccc(C(F)(F)F)cc4)n3)cnn2n1	GRK3	%	3

Return %Inh measured with GRK3 given this molecule: `Cn1ccc2ncnc(Oc3ccc(NC(=O)Nc4cnn(C(C)(C)C)c4)c(Cl)c3)c21`
6

Return %Inh measured with GRK3 given this molecule: `Nc1nccc(-c2ccc3c(N)n[nH]c3c2)n1`
40

Return %Inh measured with GRK3 given this molecule: `CC(=O)Nc1ccc(-c2cc3ncnc(SCC(=O)O)c3s2)cc1`
19

Return %Inh measured with GRK3 given this molecule: `CN(c1ccccc1CNc1nc(Nc2ccc3c(c2)CC(=O)N3)ncc1C(F)(F)F)S(C)(=O)=O`
0

Return %Inh measured with GRK3 given this molecule: `Cc1cccc(-c2nc(Nc3ccncc3)c3sccc3n2)n1`
11

Return %Inh measured with GRK3 given this molecule: `O=C(Nc1cccc(C(F)(F)F)c1)c1cccc(Oc2ccc3nccn3n2)c1`
35

Return %Inh measured with GRK3 given this molecule: `OCCn1cc(-c2cnc3nnn(Cc4ccc5ncccc5c4)c3n2)cn1`
1

Return %Inh measured with GRK3 given this molecule: `CCn1c(-c2nonc2N)nc2cncc(Br)c21`
69

Return %Inh measured with GRK3 given this molecule: `CSc1nccc(-c2c(-c3ccc(F)cc3)ncn2CCCN2CCOCC2)n1.Cl`
11

Return %Inh measured with GRK3 given this molecule: `COc1cccc(OC)c1C(=O)Nc1cccc(-c2nn3ccccc3c2-c2ccnc(Nc3cccc(F)c3)n2)c1`
0

Return %Inh measured with GRK3 given this molecule: COC(=O)c1cccc(NC(=O)NC2CCN(c3ccnc(Nc4cc(OC)c(OC)c(OC)c4)n3)C2)c1 (stereo not drawn)
49

Return %Inh measured with GRK3 given this molecule: `O=c1[nH]cc(-c2ccc(O)cc2)c2sc(-c3ccncc3)cc12`
0

Return %Inh measured with GRK3 given this molecule: `c1ccc(Oc2ccc(Nc3ccnc4ccc(-c5ccccn5)cc34)cc2)cc1`
46

Return %Inh measured with GRK3 given this molecule: `C[C@@H](Oc1cc(-n2cnc3cc(-c4cnn(C)c4)ccc32)sc1C(N)=O)c1ccccc1Cl`
0
